- target_system: T1, AtbZIP63 (Arabidopsis thaliana, UniProt B9DGI8 1-314)
- T1 sequence: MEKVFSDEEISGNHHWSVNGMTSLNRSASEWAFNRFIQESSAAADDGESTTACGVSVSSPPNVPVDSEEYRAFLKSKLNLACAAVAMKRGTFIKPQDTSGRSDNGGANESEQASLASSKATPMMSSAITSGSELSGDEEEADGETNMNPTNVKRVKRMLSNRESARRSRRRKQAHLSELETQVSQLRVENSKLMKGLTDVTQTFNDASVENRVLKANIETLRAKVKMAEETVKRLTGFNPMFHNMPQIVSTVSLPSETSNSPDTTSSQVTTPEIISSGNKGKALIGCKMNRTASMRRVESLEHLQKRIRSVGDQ
- experimental_details: DPI-ELISA; DPI-ELISA, streptavidin 384-well plate, 1-2 pmol biotinylated dsDNA per well, crude native E. coli extract, anti-His detection; buffer as in Brand et al. [46],; high values mean tight binding
- experimental_parameters: tags: C-terminal His (pET-DEST42); chain copies: 2; label: 5' biotin on forward strand
Provide the recorded binding signal for the entries that follow.

-- ask For the binder 246 (dsDNA) DNA 1: AAAAAACTGACCGTCAGCGCCCACGCAAAA DNA 2: TTTTGCGTGGGCGCTGACGGTCAGTTTTTT , what binding signal is on record?
-- reply 1.96 relative normalized absorbance

-- ask For the binder 31 (dsDNA) DNA 1: AAAAAATCCACGACTCAGCAGCTCTTAAAA DNA 2: TTTTAAGAGCTGCTGAGTCGTGGATTTTTT , what binding signal is on record?
-- reply 2.32 relative normalized absorbance

-- ask For the binder 259 (dsDNA) DNA 1: AAAAAAGTAGGTGCTGATGCTGGCCGAAAA DNA 2: TTTTCGGCCAGCATCAGCACCTACTTTTTT , what binding signal is on record?
-- reply 1.92 relative normalized absorbance

-- ask For the binder 202 (dsDNA) DNA 1: AAAAAAGATTGACTCGTCTTACTCGAAAAA DNA 2: TTTTTCGAGTAAGACGAGTCAATCTTTTTT , what binding signal is on record?
-- reply 2.68 relative normalized absorbance

-- ask For the binder 108 (dsDNA) DNA 1: AAAAAAGGCGTCTGACTGTAACTCGTAAAA DNA 2: TTTTACGAGTTACAGTCAGACGCCTTTTTT , what binding signal is on record?
-- reply 2.54 relative normalized absorbance

-- ask For the binder 239 (dsDNA) DNA 1: AAAAAAGTCGTTACACGTATGCGTGCAAAA DNA 2: TTTTGCACGCATACGTGTAACGACTTTTTT , what binding signal is on record?
-- reply 2.62 relative normalized absorbance

-- ask For the binder 287 (dsDNA) DNA 1: AAAAAACACGCCATTGACACTGGTAAAAAA DNA 2: TTTTTTACCAGTGTCAATGGCGTGTTTTTT , what binding signal is on record?
-- reply 1.99 relative normalized absorbance

-- ask For the binder 64 (dsDNA) DNA 1: AAAAAATCGGGCCCCGTTAGCACTCTAAAA DNA 2: TTTTAGAGTGCTAACGGGGCCCGATTTTTT , what binding signal is on record?
-- reply 2.04 relative normalized absorbance

-- ask For the binder 294 (dsDNA) DNA 1: AAAAAACGTGCGCGTGCATGTCATCGAAAA DNA 2: TTTTCGATGACATGCACGCGCACGTTTTTT , what binding signal is on record?
-- reply 1.97 relative normalized absorbance

-- ask For the binder 44 (dsDNA) DNA 1: AAAAAAGTACATGCGTAGATAATGTTAAAA DNA 2: TTTTAACATTATCTACGCATGTACTTTTTT , what binding signal is on record?
-- reply 2.11 relative normalized absorbance

-- ask For the binder 233 (dsDNA) DNA 1: AAAAAAGGTCCAGTCCACGTCATCAGAAAA DNA 2: TTTTCTGATGACGTGGACTGGACCTTTTTT , what binding signal is on record?
-- reply 2.57 relative normalized absorbance
